Data credit: patent US9320276B2

# Assay Text: logP by HPLC on reversed-phase column (EEC Directive 79/831 Annex V.A8)
# Assay type: physicochemical
# Assay Context: HPLC on reversed-phase column (C 18), 40° C., 0.1% aqueous formic acid and acetonitrile, linear gradient 10% to 90% acetonitrile
The threshold is inclusive: logP of exactly 3 counts as Fulfilled; values below receive Not fulfilled.

Here's what some known entries look like.
[[record]]
compound = "CSc1ncc(C(C(C)C)N(C)C(=O)c2c(C(F)F)nn(C)c2F)c(C(F)(F)F)n1 (stereo not drawn)"
label_value = "Fulfilled"

[[record]]
compound = "CSc1ncc(C(C(C)C)N(C)C(=O)c2c(C(F)F)nn(C)c2Cl)c(C(F)(F)F)n1 (stereo not drawn)"
label_value = "Fulfilled"

[[record]]
compound = "Cc1occc1C1(NC(=O)c2c(C(F)F)nn(C)c2Cl)CCCC1"
label_value = "Fulfilled"

[[record]]
compound = "CN(Cc1ccc(Cl)nc1)C(=O)c1c(C(F)F)nn(C)c1Cl"
label_value = "Not fulfilled"

[[record]]
compound = "Cn1nc(C(F)F)c(C(=O)N(Cc2nc3ccccc3s2)C2CC2)c1Cl"
label_value = "Not fulfilled"

[[record]]
compound = "Cc1ccoc1CN(C)C(=O)c1c(C(F)F)nn(C)c1Cl"
label_value = "Not fulfilled"

[[record]]
compound = "Cn1nc(C(F)F)c(C(=O)N(Cc2cc3ccccc3o2)C2CC2)c1Cl"
label_value = "Fulfilled"


Check if logP >= 3 (inclusive). Item: Cn1nc(C(F)F)c(C(=O)NCc2cc3ccccc3s2)c1F Not fulfilled

---

# Test system: Septoria tritici
# Assay Text: in vivo preventive test on Septoria tritici (wheat)
# Assay Context: 500 ppm of active ingredient, evaluated 21 days after inoculation
// reported Efficacy for each item listed
I only need the number, in %, no unit after it.

[[record]]
molecule = "CC(c1cccnc1Cl)N(C(=O)c1c(C(F)F)nn(C)c1F)C1CC1 (stereo not drawn) [Example 50]"
readout_label = "Efficacy"
endpoint_value = 71


The molecule identified as Cc1cc(C(C)N(C(=O)c2c(C(F)F)nn(C)c2F)C2CC2)c(C)s1 (stereo not drawn) [Example 48] registered its Efficacy at 100

The measured Efficacy associated with CC(C)c1nn(-c2ccccc2)c(Cl)c1CN(C(=O)c1c(C(F)F)nn(C)c1F)C1CC1 [Example 169] reads 100

CC(c1cc2ccccc2s1)N(C(=O)c1c(C(F)F)nn(C)c1F)C1CC1 (racemic) [Example 80] has a reported Efficacy of 100

Reported Efficacy for Cn1nc(C(F)F)c(C(=O)N(Cc2c(Cl)cncc2Cl)C2CC2)c1F [Example 115] was 86

The molecule identified as CC(c1csc2ccccc12)N(C(=O)c1c(C(F)F)nn(C)c1F)C1CC1 (racemic) [Example 85] registered its Efficacy at 90

Efficacy recorded for this molecule, Cn1nc(C(F)F)c(C(=O)N(Cc2cccc3ccsc23)C2CC2)c1F [Example 93] , is 100

Value of measured Efficacy for the entry Cc1sc(-c2ccccc2)cc1C(C)N(C(=O)c1c(C(F)F)nn(C)c1F)C1CC1 (stereo not drawn) [Example 147] : 80

Sample Cn1nc(C(F)F)c(C(=S)N(Cc2cccc3ccsc23)C2CC2)c1F [Example 95] ; Efficacy observed: 80

---

# Assay Text: logP by HPLC on reversed-phase column (EEC Directive 79/831 Annex V.A8)
# Format: physicochemical
# Assay Context: HPLC on reversed-phase column (C 18), 40° C., 0.1% aqueous formic acid and acetonitrile, linear gradient 10% to 90% acetonitrile
Rule: logP of 3 or more gives Fulfilled; anything lower gives Not fulfilled.

Example cases with answers are listed next.
[[record]]
molecule = "CCN(Cc1cnc(Cl)s1)C(=O)c1c(C(F)F)nn(C)c1F"
label_value = "Not fulfilled"

[[record]]
molecule = "Cn1nc(C(F)F)c(C(=O)N(Cc2c(Cl)cncc2Cl)C2CC2)c1Cl"
label_value = "Not fulfilled"

[[record]]
molecule = "Cc1cc(C(C)N(C(=O)c2c(C(F)F)nn(C)c2F)C2CC2)c(C)o1 (stereo not shown)"
label_value = "Fulfilled"

[[record]]
molecule = "CN(Cc1ccc2nsnc2c1)C(=O)c1c(C(F)F)nn(C)c1F"
label_value = "Not fulfilled"


Alright, here's another molecule for you.
Given the entry CC(C)N(Cc1cnn(-c2ccc(Cl)cc2)c1)C(=O)c1c(C(F)F)nn(C)c1F , answer whether its logP meets or surpasses 3. Fulfilled

---

# Assay Text: logP by HPLC on reversed-phase column (EEC Directive 79/831 Annex V.A8)
# Type: physicochemical
# Assay Context: HPLC on reversed-phase column (C 18), 40° C., 0.1% aqueous formic acid and acetonitrile, linear gradient 10% to 90% acetonitrile
# Method: In table 1, the logP values were determined in accordance with EEC Directive 79/831 Annex V.A8 by HPLC (High Performance Liquid Chromatography) on a reversed-phase column (C 18), using the method described below: Temperature: 40° C.; Mobile phases: 0.1% aqueous formic acid and acetonitrile; linear gradient from 10% acetonitrile to 90% acetonitrile. […]
Readout Label: logP
Respond using a number only.

// below: answered compounds
[[record]]
chemical_smiles = "Cn1nc(C(F)F)c(C(=O)NC2(c3cc4ccccc4o3)CCCC2)c1F"
readout_label = "logP"
endpoint_value = 3.52

[[record]]
chemical_smiles = "CN(Cc1ccnc(Cl)c1)C(=O)c1c(C(F)F)nn(C)c1F"
readout_label = "logP"
endpoint_value = 1.76

[[record]]
chemical_smiles = "Cn1nc(C(F)F)c(C(=O)N(Cc2c(Cl)cncc2Cl)C2CC2)c1F"
readout_label = "logP"
endpoint_value = 2.54

[[record]]
chemical_smiles = "CN(Cc1cscc1Br)C(=O)c1c(C(F)F)nn(C)c1Cl"
readout_label = "logP"
endpoint_value = 2.70


Field logP (entry Cn1nc(C(F)F)c(C(=O)N(Cc2cccnc2)CC(F)(F)F)c1Cl ) reads 1.37

// sample Cn1nc(C(F)F)c(C(=O)N(Cc2ccco2)C2CC2)c1Cl , its logP was 2.45

logP reading for CN(Cc1sc2ccccc2c1Cl)C(=O)c1c(C(F)F)nn(C)c1F : 3.48

Measured logP, Cn1nc(C(F)F)c(C(=O)N(Cc2ccco2)C2CCCCC2)c1F : 3.21

Sample Cn1nc(C(F)F)c(C(=O)N(Cc2cnc(Cl)cc2Cl)C2CC2)c1Cl ; logP observed: 2.90

---

# System: Pyrenophora teres
# Assay Text: in vivo preventive test on Pyrenophora teres (barley)
# Assay Context: 500 ppm of active ingredient, evaluated 7-9 days after inoculation
Readout Label: Efficacy (%)
Dear colleague, please return just the value in %, with no unit written.

Lab book: Efficacy of Cc1cc(C(C)N(C(=O)c2c(C(F)F)nn(C)c2F)C2CC2)c(C)o1 (stereo not shown) [Example 35] noted as 100

// Cn1nc(C(F)F)c(C(=O)N(Cc2cc(-c3ccc(Cl)cc3)no2)C2CC2)c1Cl [Example 154] : Efficacy value = 100

For reference, reported Efficacy for Cn1nc(C(F)F)c(C(=O)N(Cc2cc(-c3cc(F)c(F)c(F)c3)no2)C2CC2)c1F [Example 165] stands at 100

Documented Efficacy of Cn1nc(C(F)F)c(C(=O)N(Cc2cc(Cl)nc3ccccc23)C2CC2)c1Cl [Example 139] : 90

Looking up Cn1nc(C(F)F)c(C(=O)N(Cc2cc(-c3ccccc3)no2)C2CC2)c1Cl [Example 112] , I found its Efficacy recorded as 95

Efficacy measured on CC(c1cccc2ccsc12)N(C(=O)c1c(C(F)F)nn(C)c1F)C1CC1 (stereo not shown) [Example 91] = 100

Form: compound = Cn1nc(C(F)F)c(C(=O)N(Cc2cc(CC(C)(C)C)no2)C2CC2)c1F [Example 106] ; Efficacy = 100

Recorded Efficacy (compound CN(Cc1cscc1Br)C(=O)c1c(C(F)F)nn(C)c1F [Example 133] ): 90

Looking up Cn1nc(C(F)F)c(C(=S)N(Cc2cc(C(F)(F)F)nc3ccccc23)C2CC2)c1F [Example 161] , I see its Efficacy listed as 100

---

# Assay Text: logP by HPLC on reversed-phase column (EEC Directive 79/831 Annex V.A8)
# Type: physicochemical
# Assay Context: HPLC on reversed-phase column (C 18), 40° C., 0.1% aqueous formic acid and acetonitrile, linear gradient 10% to 90% acetonitrile
Each record is given Satisfied if its reported logP is strictly below 3. Records at or above 3 are given Not satisfied.

[[record]]
molecule = "Cn1nc(C(F)F)c(C(=O)N(Cc2cccc3ccsc23)C2CC2)c1F"
label_value = "Not satisfied"

[[record]]
molecule = "Cn1nc(C(F)F)c(C(=O)N(Cc2csc3ccc(Cl)cc23)C2CC2)c1F"
label_value = "Not satisfied"

[[record]]
molecule = "CC(c1cc2ccccc2o1)N(C(=O)c1c(C(F)F)nn(C)c1F)C1CC1 (racemic)"
label_value = "Not satisfied"


Then there is this molecule:
Determine whether this molecule shows logP lower than 3 (ties excluded): CN(Cc1sc2ccccc2c1Cl)C(=O)c1c(C(F)F)nn(C)c1Cl Not satisfied
